- assayed-target: T1, AtTCP10-DBD (UniProt O82277 1-87)
- T1 sequence: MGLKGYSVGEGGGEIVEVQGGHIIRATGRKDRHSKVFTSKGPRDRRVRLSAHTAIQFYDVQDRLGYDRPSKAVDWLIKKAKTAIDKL
- procedure-details: ITC
measured-endpoint: pKd
// field semantics: pKd = negative decimal log of concentration (mol/L)

Past entries and their recorded results:
binder: three-site class II DNA (dsDNA) DNA 1: ATGTGGTCCCCACT DNA 2: TAGTGGGGACCACA
pKd: 8.07
//
binder: two-site class II DNA (dsDNA) DNA 1: ATGTGGTCCCGTGT DNA 2: TACACGGGACCACA
pKd: 6.45

Moving on to the next binder.
Could you share which pKd value was measured for one-site class II DNA (dsDNA) DNA 1: ATAGAGTCCCGTGT DNA 2: TACACGGGACTCTA ?
6.44
